B1: ZC3H15 (parent)
chain: ENLFTGEDLDELEEELNTLDLEE

- Variants of: B1
- protocolDetails: protein stability index of a GFP-peptide fusion (GPS, HEK-293T) (PSI 1-6); higher = more stable;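 also: lentivirally expressed fusions sorted by FACS into six bins by GFP to DsRed ratio, PSI derived from sequencing read proportions per bin multiplied by bin number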
- experimentalConditions: c terminus: native
Assign Criterion met whenever protein stability index does not fall below 4; assign Criterion not met whenever it does.

>>> classification("ENLFTGEDWDELEEELNTLDLEE [L9W]")
"Criterion not met"
>>> classification("ENLFTGEDLDELEEELTTLDLEE [N17T]")
"Criterion not met"
>>> classification("ENLFTGEDLDELEEYLNTLDLEE [E15Y]")
"Criterion not met"
>>> classification("ENLFTGEDLDELEEELNTLMLEE [D20M]")
"Criterion not met"
>>> classification("DNLFTGEDLDELEEELNTLDLEE [E1D]")
"Criterion met"
>>> classification("ENLFTGEQLDELEEELNTLDLEE [D8Q]")
"Criterion met"
>>> classification("ENLFTGEDLDEYEEELNTLDLEE [L12Y]")
"Criterion not met"
>>> classification("ENLFTGEDLDELEEELNTLNLEE [D20N]")
"Criterion met"
>>> classification("ENLFTGEDIDELEEELNTLDLEE [L9I]")
"Criterion met"
>>> classification("ENLFTGEDLDELEEELNTLPLEE [D20P]")
"Criterion not met"
>>> classification("ENLFTGEDLDELEFELNTLDLEE [E14F]")
"Criterion not met"
>>> classification("ENLFTGEDLDELREELNTLDLEE [E13R]")
"Criterion met"
>>> classification("ENLFTGEDLDELEEELNTLDLQE [E22Q]")
"Criterion met"
>>> classification("ENLFTGEDQDELEEELNTLDLEE [L9Q]")
"Criterion not met"
>>> classification("ENLKTGEDLDELEEELNTLDLEE [F4K]")
"Criterion not met"
>>> classification("ENLFWGEDLDELEEELNTLDLEE [T5W]")
"Criterion met"
>>> classification("ENLFTGEDLDGLEEELNTLDLEE [E11G]")
"Criterion met"
>>> classification("ENLVTGEDLDELEEELNTLDLEE [F4V]")
"Criterion not met"
>>> classification("ENLFTGEDLDELEEELNWLDLEE [T18W]")
"Criterion not met"
>>> classification("ENLFTGEDLDELEEELNTLDLFE [E22F]")
"Criterion met"
>>> classification("ENLFTGEDLAELEEELNTLDLEE [D10A]")
"Criterion met"
>>> classification("ENLFTGEDLDEAEEELNTLDLEE [L12A]")
"Criterion not met"
>>> classification("ENLFTGEDLDMLEEELNTLDLEE [E11M]")
"Criterion met"
>>> classification("ENLFTGEDLDELEEELNSLDLEE [T18S]")
"Criterion met"
>>> classification("ENLFTGEDLDELLEELNTLDLEE [E13L]")
"Criterion met"
>>> classification("ENLITGEDLDELEEELNTLDLEE [F4I]")
"Criterion met"
>>> classification("ENLFTGEDLDELEEELNTVDLEE [L19V]")
"Criterion not met"
